Target: PaPhzD (Pseudomonas aeruginosa, UniProt P0DPB9)
Construct: inferred from Ni-NTA purification with imidazole elution; made in house; host or cells: E. coli BL21(DE3)
Sequence (P0DPB9 whole entry): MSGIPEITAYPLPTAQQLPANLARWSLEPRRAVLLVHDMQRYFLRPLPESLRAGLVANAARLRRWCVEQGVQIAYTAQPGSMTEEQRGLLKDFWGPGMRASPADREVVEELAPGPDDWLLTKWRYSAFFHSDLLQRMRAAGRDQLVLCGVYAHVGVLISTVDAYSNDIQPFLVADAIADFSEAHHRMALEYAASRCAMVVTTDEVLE
Test: Thermal shift assay (TSA) with SYPRO Orange
Type: binding
Conditions: read-out: ΔTm of PaPhzD
Reported Metric: ΔTm at 50 µM (°C)

[[record]]
given_smiles = "CCCCCCCCCCCCCCCc1cccc(OC)c1C(=O)OC"
limit_sign = "<"
numeric_value = 0.5

[[record]]
given_smiles = "CCCCCCCCCCCCCCCc1cccc(OCC(=O)OCC)c1"
limit_sign = "="
numeric_value = -1.2

[[record]]
given_smiles = "CCCCCCCCCCCCCCCc1cccc(OC(C)(C)C(=O)OCC)c1"
limit_sign = "<"
numeric_value = 0.5

[[record]]
given_smiles = "CCCCCCCCCCCCCCCc1cccc(OC(C)(C)C(=O)O)c1"
limit_sign = "="
numeric_value = -2.6

[[record]]
given_smiles = "CCCCCCCCCCCCCCCc1cccc(OC)c1C(=O)O"
limit_sign = "="
numeric_value = -3.3


* * *

The entries below are paired with their reported ΔTm at 50 µM.
Molecular target: PaPhzD (Pseudomonas aeruginosa, UniProt P0DPB9)
Construct: inferred from Ni-NTA purification with imidazole elution; made in house; host or cells: E. coli BL21(DE3)
Experiment: Thermal shift assay (TSA) with SYPRO Orange
Type: binding
Conditions: read-out: ΔTm of PaPhzD
Reported Metric: ΔTm at 50 µM (°C)

[[record]]
given_smiles = "CCCCCCCCCCCCCCCc1cccc(OC(C)=O)c1C(=O)OC"
limit_sign = "<"
numeric_value = 0.5

[[record]]
given_smiles = "CCCCCCCCCCCCCCCc1cccc(OC(C)=O)c1C(=O)O"
limit_sign = "="
numeric_value = -4.7

[[record]]
given_smiles = "CCCCCCCCCCCCCCCc1ccc(C(=O)O)c(OC)c1"
limit_sign = "="
numeric_value = -1.2

[[record]]
given_smiles = "CCCCCCCCCCCCCCCc1cccc(OCC(=O)O)c1"
limit_sign = "="
numeric_value = -3.8

[[record]]
given_smiles = "CCCCCCCCCCCCCCCc1cccc(O)c1C(=O)OC"
limit_sign = "<"
numeric_value = 0.5

[[record]]
given_smiles = "CCCCCCCCCCCCCCCc1cccc(OC)c1"
limit_sign = "<"
numeric_value = 0.5

[[record]]
given_smiles = "CCCCCCCCCCCCCCCc1cccc(OC(C)=O)c1"
limit_sign = "<"
numeric_value = 0.5

